Reference for the values: patent US8927717B1

Entries and their Growth percent SK-MEL-5
- Test system: SK-MEL-5
- Assay type: cell-based
- Conditions used: Melanoma; 10^−5 molar; 48 hours; SRB
All answers are understood in %, so give the number only.

These solved cases illustrate the format of a correct answer.
CN(C)CCNc1nc2ccccc2c2c(=O)c3cc(Cl)ccc3sc12 [Compound N7] | 18.83
CCC(CC)Nc1nc2ccccc2c2c(=O)c3cc(Cl)ccc3sc12 [Compound N6] | 90.08
O=c1c2ccc(Cl)cc2sc2c(Cl)nc3ccccc3c12 [Compound 3] | 97.42
O=c1c2cc(Cl)ccc2sc2c(NCCO)nc3ccccc3c12 [Compound N9] | 97.36
O=c1c2cc(Cl)ccc2sc2c(N3CCN(Cc4ccccc4)CC3)nc3ccccc3c12 [Compound 11] | 98.38
NCCNc1nc2ccccc2c2c(=O)c3cc(Cl)ccc3sc12 [Compound N14] | 68.64

Continue with the compound presented below.
Give its Growth percent SK-MEL-5 value. Item: CC(C)CC(C)Nc1nc2ccccc2c2c(=O)c3cc(Cl)ccc3sc12 (stereo not shown) [Compound N13]
90.71
